remaining activity at 192 µM values, listed per item
Biological target: MEX-5 (Caenorhabditis elegans, UniProt Q9XUB2)
Construct: The fragment of mex-5 containing the TZF domain (amino acids 236-350) was amplified; made in house; host or cells: Escherichia coli JM109
Sequence (Q9XUB2 236-350): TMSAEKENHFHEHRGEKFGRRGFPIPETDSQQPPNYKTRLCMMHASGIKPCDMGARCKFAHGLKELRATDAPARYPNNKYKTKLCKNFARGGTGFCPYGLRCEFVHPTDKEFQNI
Experiment: Fluorescence polarization screening of MEX-5 binding to fluorescein-labeled TCR2 RNA
Conditions: 192 μM test compound; score = polarization relative to no-drug and no-protein controls; 0.25 = 75% inhibition; lowest score = greatest inhibition; read-out: MEX-5 score
Method: The expression and purification of recombinant MEX-5 protein has previously been described in Pagano, J. M., Farley, B. M., McCoig, L. M. and Ryder, S. P. (2007) “Molecular basis of RNA recognition by the embryonic polarity determinant MEX-5;” J Biol Chem; 282, 8883-8894. […] MEX-5 is expressed in Escherchia. coli JM109 liquid cultures grown at 37° C. […] The protein concentration was determined by measuring absorbance at 280 nm and the calculated extinction coefficient. […]
Property Measured: remaining activity at 192 µM (%)

1) Oc1ccc(-c2csc(Nc3cccc4ccccc34)n2)cc1O [AY]    14.1
2) O=C(O)c1cc(NC(=O)c2cccc(N3C(=O)CCC3=O)c2)cc(C(=O)O)c1 [AH]    8.76
3) O=[N+]([O-])c1ccc(S(=O)(=O)Nc2cc(Cl)ccc2O)cc1 [AD]    8.04
4) CCOC(=O)Cc1nnc(NC(=O)c2ncn[nH]2)s1 [N]    2.09
5) O=C(Nc1nc2ccccc2s1)c1cccc(C(=O)Nc2nc3ccccc3s2)n1 [AP]    12.2
6) O=C(Oc1ccc2c(c1)C1C=CCC1C(C(=O)O)N2)c1ccc(Cl)cc1Cl (stereo not drawn) [K]    0.00138
7) O=C(Nc1nc2n(n1)C(c1ccccc1)C=C(c1ccccc1)N2)c1ccc([N+](=O)[O-])cc1 (stereo not drawn) [BH]    17.6
8) CCOC(=O)C(=O)Nc1nnc(C(C)(C)C)s1 [CR]    24.7
9) CCCc1nnc(NC(=O)c2cccc(C(=O)Nc3nnc(CCC)s3)n2)s1 [AK]    10.2
